Taken from ChEMBL document CHEMBL1201862.

System: M14
assay-name: NCI tumour cell line growth inhibition, 48 h
The source made the active and inactive calls. Cut-off read from the data, not from the text of the source: active = GI50 up to about 1.1 µM and inactive = higher.
recorded-endpoint: GI50

Ask | // query GI50 value for entry CCCC(=O)N/S(=N/S(=O)(=O)c1ccc(Cl)cc1)C(Cl)(Cl)Cl (stereo not drawn)
Reply | > 100 µM (inactive)

Ask | And the next one, Nc1nc(N)c2ncn(CCCC(c3ccccc3)P(=O)(O)O)c2n1 (stereo not drawn) ?
Reply | > 100 µM (inactive)

Ask | And the next one, COC(=O)[C@@H]1O[C@]12C(CO[Si](C)(C)C(C)(C)C)OC(n1ccc(=O)[nH]c1=O)C2O[Si](C)(C)C(C)(C)C (stereo partly drawn) ?
Reply | 15.3 µM (inactive)

Ask | And the next one, O=C(Cc1ccc(Cl)c(Cl)c1)N(CCc1ccc(Cl)c(Cl)c1)CCN1CCCC1 ?
Reply | 1.77 µM (inactive)

Ask | And the next one, COc1ccc(C2Oc3c(cc(O)c(OC)c3C)[C@@H]2C)cc1OC (stereo partly drawn) ?
Reply | > 100 µM (inactive)

Ask | And the next one, NCCC1(N)CCNCC1 ?
Reply | > 100 µM (inactive)

Ask | And the next one, C=C1C(=O)OC2/C=C(\CO)C3OC3C3OC3(C)CC(OC(=O)/C(=C/C)COC(C)=O)C12 (stereo not drawn) ?
Reply | 2.75 µM (inactive)

Ask | And the next one, CSC(=N\c1ccccc1)/N=C(\SCc1ccccc1)N(C)C ?
Reply | 0.789 µM (active)
